test.target: HPK1 (Homo sapiens (Human))
protocol.text: HPK1 biochemical enzyme assay (microfluidic mobility shift assay)
test.conditions: 1.5 nM HPK1, ATP 1 mM final, 30 min preincubation, 60 min at RT, Caliper EZ Reader; read-out: HPK1 1000UMATP caliper IC50
pIC50: −log10 of the molar value.
measured.endpoint: pIC50

CO[C@H]1CC[C@H](CO)N(c2ccc(Nc3ccc(-c4cnn5c4CCCC5)c4c3C(=O)NC4)nc2)C1 [I-571]
> 7.00

**Q:** Return reported pIC50; argument: CN(Cc1nc(Nc2ccc(-c3cnc4cc(F)ccn34)c3c2C(=O)NC3)ccc1[C@H]1CCOC1)CC(F)F (single isomer, unassigned) [I-748]
**A:** > 7.00

**Q:** Return reported pIC50; argument: Cn1ccc2c(-c3ccc(Nc4ccc(N5CCC(O)CC5)cn4)c4c3CNC4=O)cnc-2n1 [I-426]
**A:** > 7.00

* * *

pIC50: −log10 of the molar value.
Read-out record for HPK1 (Homo sapiens (Human), UniProt Q92918): pIC50

// worked examples, pIC50 included
C[C@H](c1ccc(Nc2ccc(-c3cnc4cc(F)ccn34)c3c2C(=O)NC3)nc1)N1CCO[C@@H](C)C1
> 7.00
O=C1NCc2c(-c3cnn4cc(F)ccc34)ccc(Nc3ccc(N4CCC(O)CC4)cn3)c21
> 7.00
O=C1NCc2c(-c3ccc4cnccn34)ccc(Nc3ccc(N4CCC(O)CC4)cn3)c21
> 7.00
Cc1cc2c(-c3ncc(Nc4ccc(N5CCC[C@H](C(C)(C)O)C5)cn4)c4c3CNC4=O)ccnc2n1C
> 7.00
CN1CCN(c2ccc(Nc3ccc(-c4ccnc5ccn(C)c45)c4c3C(=O)NC4)nc2)CC1
6.00 to 7.00

**Q:** Lab request: please report pIC50 under test system HPK1 (Homo sapiens (Human), UniProt Q92918) for O=C1NCc2c(-c3cnc4cc(F)ccn34)ccc(Nc3ccc(C4CCOC4)c(CO)n3)c21 (stereo not shown)
**A:** > 7.00

**Q:** Lab request: please report pIC50 under test system HPK1 (Homo sapiens (Human), UniProt Q92918) for `CN(C)CCOC1(c2ccc(Nc3ccc(-c4cnc5cc(F)ccn45)c4c3C(=O)NC4)nc2)CCOCC1`
**A:** > 7.00

**Q:** Lab request: please report pIC50 under test system HPK1 (Homo sapiens (Human), UniProt Q92918) for `Cc1cnc2c(-c3ccc(Nc4ccc(N5CCN(C)CC5)cn4)c4c3CNC4=O)cnn2c1`
**A:** > 7.00

**Q:** Lab request: please report pIC50 under test system HPK1 (Homo sapiens (Human), UniProt Q92918) for `Cn1ccc2c(-c3ncc(Nc4ccc([C@H]5CCOC5)c(CN5CC[C@H](O)C5)n4)c4c3CNC4=O)ccnc21`
**A:** > 7.00

**Q:** Lab request: please report pIC50 under test system HPK1 (Homo sapiens (Human), UniProt Q92918) for `CC(C)(O)[C@H]1CN(c2ccc(Nc3cnc(-c4cnc5c(Cl)cccn45)c4c3C(=O)NC4)nc2)CCO1`
**A:** > 7.00

**Q:** Lab request: please report pIC50 under test system HPK1 (Homo sapiens (Human), UniProt Q92918) for `O=C1NCc2c(-c3cnc4cc(F)ccn34)ccc(Nc3ccc(N4CCC[C@@H](O)C4)cn3)c21`
**A:** > 7.00

**Q:** Lab request: please report pIC50 under test system HPK1 (Homo sapiens (Human), UniProt Q92918) for `Cc1ccn2c(-c3ccc(Nc4ccc([C@@H]5CCOC5)c(CN(C)C)n4)c4c3CNC4=O)cnc2c1F`
**A:** > 7.00

**Q:** Lab request: please report pIC50 under test system HPK1 (Homo sapiens (Human), UniProt Q92918) for `Cc1ccc2c(-c3ccc(Nc4ccc(N5CCNCC5)cn4)c4c3CNC4=O)cnn2c1`
**A:** > 7.00

**Q:** Lab request: please report pIC50 under test system HPK1 (Homo sapiens (Human), UniProt Q92918) for `CC(C)(c1ccc(Nc2ccc(-c3cnc4cc(F)ccn34)c3c2C(=O)NC3)nc1)N1CCOCC1`
**A:** > 7.00

**Q:** Lab request: please report pIC50 under test system HPK1 (Homo sapiens (Human), UniProt Q92918) for `Cc1cnn2c(-c3ccc(Nc4ccc([C@H]5CCOC5)c(CN(C)C)n4)c4c3CNC4=O)cnc2c1`
**A:** > 7.00

**Q:** Lab request: please report pIC50 under test system HPK1 (Homo sapiens (Human), UniProt Q92918) for `O=C1NCc2c(-c3cnc4c(C(F)(F)F)cccn34)ccc(Nc3ccc(N4CCC(O)CC4)cn3)c21`
**A:** > 7.00

* * *

pIC50: −log10 of the molar value.
Read-out record for HPK1 (Homo sapiens (Human), UniProt Q92918): pIC50

O=C1NCc2c(-c3ccnn4cccc34)ncc(Nc3ccc(N4CCC(O)CC4)cn3)c21 [I-588]
< 6.00
CN[C@@H]1CCCN(c2ccc(Nc3ccc(-c4ccnc5c4ccn5C)c4c3C(=O)NC4)nc2)C1 [I-100]
> 7.00
O=C1NCc2c(-c3cnn4c3CCC(C(=O)NC3CC3)C4)ccc(Nc3ccc(N4CCC(O)CC4)cn3)c21 (centres unmarked) [I-150]
6.00 to 7.00

**Q:** Lab request: please report pIC50 under test system HPK1 (Homo sapiens (Human), UniProt Q92918) for COC1CCN(c2ccc(Nc3cnc(-c4cnc5c(F)cccn45)c4c3C(=O)NC4)nc2)CC1 [I-455]
**A:** 6.00 to 7.00

**Q:** Lab request: please report pIC50 under test system HPK1 (Homo sapiens (Human), UniProt Q92918) for O=C1NCc2c(-c3cnc4cc(F)ccn34)ccc(Nc3ccc(N4CC(O)CCC45CC5)cn3)c21 (centres unmarked) [I-395]
**A:** > 7.00

**Q:** Lab request: please report pIC50 under test system HPK1 (Homo sapiens (Human), UniProt Q92918) for O=C1NCc2c(-c3cnc4c(F)cccn34)ccc(Nc3ccc(N4CCNCC4)cn3)c21 [I-88]
**A:** > 7.00

**Q:** Lab request: please report pIC50 under test system HPK1 (Homo sapiens (Human), UniProt Q92918) for CN(C)[C@@H]1COCCN(c2ccc(Nc3ccc(-c4cnc5cc(F)ccn45)c4c3C(=O)NC4)nc2)C1 [I-518]
**A:** > 7.00

**Q:** Lab request: please report pIC50 under test system HPK1 (Homo sapiens (Human), UniProt Q92918) for O=C1NCc2c(-c3cnc4cc(CO)ccn34)ccc(Nc3ccc(N4CCOCC4)cn3)c21 [I-196]
**A:** > 7.00

* * *

test.target: HPK1 (Homo sapiens (Human), UniProt Q92918)
Sequence (Q92918 whole entry): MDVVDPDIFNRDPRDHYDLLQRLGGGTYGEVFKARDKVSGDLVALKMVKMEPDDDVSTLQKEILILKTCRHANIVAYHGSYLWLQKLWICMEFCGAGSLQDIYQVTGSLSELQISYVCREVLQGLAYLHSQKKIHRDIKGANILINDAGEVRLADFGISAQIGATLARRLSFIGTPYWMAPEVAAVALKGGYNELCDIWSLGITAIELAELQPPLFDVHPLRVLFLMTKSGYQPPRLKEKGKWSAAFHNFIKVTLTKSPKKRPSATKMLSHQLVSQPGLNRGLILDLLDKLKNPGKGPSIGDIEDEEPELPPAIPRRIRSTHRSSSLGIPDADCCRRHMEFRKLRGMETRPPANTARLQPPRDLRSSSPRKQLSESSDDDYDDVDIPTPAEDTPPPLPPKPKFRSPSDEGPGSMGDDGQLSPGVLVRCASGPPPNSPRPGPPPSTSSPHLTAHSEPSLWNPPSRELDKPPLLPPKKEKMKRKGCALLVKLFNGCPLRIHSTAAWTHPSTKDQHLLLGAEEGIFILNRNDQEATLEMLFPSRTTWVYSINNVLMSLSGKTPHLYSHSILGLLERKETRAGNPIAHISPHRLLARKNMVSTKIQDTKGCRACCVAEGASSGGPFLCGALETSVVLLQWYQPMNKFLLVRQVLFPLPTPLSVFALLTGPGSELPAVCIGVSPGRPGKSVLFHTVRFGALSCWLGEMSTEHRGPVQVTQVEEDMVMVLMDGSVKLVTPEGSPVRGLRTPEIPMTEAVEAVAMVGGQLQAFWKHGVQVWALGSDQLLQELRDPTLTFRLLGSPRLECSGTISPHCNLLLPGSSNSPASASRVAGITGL
protocol.text: HPK1 biochemical enzyme assay (microfluidic mobility shift assay)
test.conditions: 1.5 nM HPK1, ATP 1 mM final, 30 min preincubation, 60 min at RT, Caliper EZ Reader; read-out: HPK1 1000UMATP caliper IC50
measured.endpoint: IC50

CN(C)Cc1nc(Nc2ccc(-c3cnc4cc(F)ccn34)c3c2C(=O)NC3)ccc1[C@H]1CCCO1
< 100 nM
Cn1ccc2c(-c3ccc(Nc4ccc(S(C)(=O)=O)cn4)c4c3CNC4=O)ccnc21
< 100 nM
O=C1NCc2c(-c3cnc4ccc(C(F)(F)F)cn34)ccc(Nc3ccc(N4CCC(O)CC4)cn3)c21
> 1000 nM
CN(C)Cc1nc(Nc2ccc(-c3cnc4cc(F)ccn34)c3c2C(=O)NC3)ccc1C1(F)CCOCC1
< 100 nM
CN1CCCc2c(-c3ccc(Nc4ccc(N5CCNCC5)cn4)c4c3CNC4=O)ccnc21
100 to 1000 nM

**Q:** Return reported IC50; argument: `Cc1cnc2c(-c3ccc(Nc4ccc(N5CCC(O)CC5)cn4)c4c3CNC4=O)cccn12`
**A:** 100 to 1000 nM

**Q:** Return reported IC50; argument: C[C@@H](O)[C@H]1CN(c2ccc(Nc3ccc(-c4cnc5cc(F)ccn45)c4c3C(=O)NC4)nc2)CCO1 (single isomer, unassigned)
**A:** < 100 nM

**Q:** Return reported IC50; argument: CN(C)C(C)(C)C1CN(c2ccc(Nc3ccc(-c4cnc5cc(F)ccn45)c4c3C(=O)NC4)nc2)CCO1 (stereo not shown)
**A:** < 100 nM

**Q:** Return reported IC50; argument: Cn1ccc2c(-c3ncc(Nc4cccc(N5CCC6CNCC65)n4)c4c3CNC4=O)ccnc21 (stereo not shown)
**A:** < 100 nM

* * *

Read-out record for HPK1 (Homo sapiens (Human), UniProt Q92918): pIC50
pIC50: −log10 of the molar value.

// worked examples, pIC50 included
CN1CCN(c2ccc(Nc3ccc(-c4ccn5ncnc5c4)c4c3C(=O)NC4)nc2)CC1
6.00 to 7.00
Cc1nc2ccccn2c1-c1ccc(Nc2ccc(N3CCN(C)CC3)cn2)c2c1CNC2=O
6.00 to 7.00
CN1CCN(c2ccc(Nc3ccc(-c4ncnc5c4ccn5C)c4c3C(=O)NC4)nc2)CC1
> 7.00
Cc1cn(C)c2nccc(-c3ccc(Nc4ccc(N5CCNCC5)cn4)c4c3CNC4=O)c12
> 7.00

**Q:** Return reported pIC50; argument: `O=C1NCc2c(-c3cnn4cccnc34)ccc(Nc3ccc(N4CCC(O)CC4)cn3)c21`
**A:** > 7.00

**Q:** Return reported pIC50; argument: `O=C1NCc2c(-c3cnc4ccccn34)ncc(Nc3ccc(N4CCC(O)CC4)cn3)c21`
**A:** > 7.00

**Q:** Return reported pIC50; argument: `CN1CCN(Cc2ccc(Nc3ccc(-c4cnc5c(F)c(C(F)F)ccn45)c4c3C(=O)NC4)nc2)C(C)(C)C1`
**A:** > 7.00

**Q:** Return reported pIC50; argument: O=C1NCc2c(-c3cnc4cc(F)ccn34)ccc(Nc3ccc(C4CCOC4)c(N4CCNCC4)n3)c21 (stereo in doubt) [I-772]
**A:** > 7.00
